Assay: Inhibition of caspase-like of purified human 20S proteasome using Z-LLE-AMC as substrate after 30 mins by fluorescence assay
pIC50: −log10 of the molar value.

compound	qualifier_symbol	pIC50
NC1=N[C@]23CCCN2C(=O)c2cc(Br)c(Br)n2[C@@H]3N1 (racemic)	=	4.57
NC[C@@H]1[C@H]2CN3C(=O)c4cccn4[C@@H]4NC(N)=N[C@@]43[C@@H]2[C@]2(N=C(N)N[C@H]2O)[C@H]1Cl	=	5.80
O=C1N[C@H]2n3c(cc(Br)c3Br)C(=O)N3CCC[C@]23N1 (racemic)	=	4.79
O=c1c2cc(Br)c(Br)n2cc2n1CCC2	<	4.00
NC[C@@H]1[C@H]2CN3C(=O)c4cccn4[C@@H]4NC(N)=N[C@@]43[C@@H]2[C@]2(N=C(N)N[C@H]2O)[C@H]1Cl (racemic)	=	5.52

Reference source: ChEMBL document CHEMBL2046385
